Readings of Average IC50, IL-13-induced TARC production by A-549 cells for the listed binders
molecular target: human IL-13 wild type (human, UniProt P35225 35-146); assay: cell-based or functional assay
Sequence (P35225 other isoform, or with tags, fused parts or gaps limits assumed): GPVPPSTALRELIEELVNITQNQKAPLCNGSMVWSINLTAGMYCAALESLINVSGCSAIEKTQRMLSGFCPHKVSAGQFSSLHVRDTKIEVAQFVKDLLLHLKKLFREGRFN
Kindly answer with a numeric value in nM, unit omitted.

// solved cases for Average IC50, IL-13-induced TARC production by A-549 cells follow
| binder | uom | value |
| --- | --- | --- |
| 21D9 (antibody, V domains shown) VH: QVQLQQSGDDLVKPGASVKLSCKASGYTFTSYWINWIKQRPGQGLEWIGHIAPGSGETYDNEMFKDKAKLTVDTSSNTAYIHLSSLSSEDSAVYFCARGSFTFFYAMDYWGQGTSVTVSS VL: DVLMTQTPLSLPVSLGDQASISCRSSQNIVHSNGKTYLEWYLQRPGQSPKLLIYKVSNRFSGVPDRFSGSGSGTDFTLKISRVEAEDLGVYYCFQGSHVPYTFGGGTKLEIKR | nM | 0.0682 |
| 3E5 (antibody, V domains shown) VH: QVQLKESGPGLVAPSQSLSITCTVSGFSLTGSSINWVRQPPGKGLEWLGMIWGDGRIDYNSVLKSRLSISKDSSKSQVFLKMNSLQADDTARYYCARDGYYPYAMVYWGQGTSVTVSS VL: NIVLTQSPASLAVSLGQRATIFCRASESVDSYGNSFMHWYQQKSGQPPKLLIYLASNLESGVPARFSGSGSRTDFTLTIDPVEADDAATFYCQQNNENPRTFGGGTKLEIKR | nM | 0.13 |

API: the following record is the query input.
Quick check: Average IC50, IL-13-induced TARC production by A-549 cells of 5F1 (antibody, V domains shown) VH: QVQLQQSGAELARPGTSVKLSCKASGYTFTTYGISWVKQRTGQGLEWIGEIYPGSYNTYYNEKFRGKATLTADKSSSTAYMQLSSLTSEDSAVYFCSRWRTSYFSDYGYFDYWGQGTTLTVSS VL: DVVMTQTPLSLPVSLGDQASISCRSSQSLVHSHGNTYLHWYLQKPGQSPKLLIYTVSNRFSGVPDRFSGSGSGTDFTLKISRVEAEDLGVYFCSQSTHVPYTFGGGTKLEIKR ?
0.097
